Tested on: SMN2
Assay: SMN2 splicing pattern, semi-quantitative RT-PCR in SMA-like MEFs
Assay type: cell-based, mouse
Design: key: −: no effect; +: effective; +++: most effective
Settings: SMA-like MEFs; TSA 10 nM, sodium butyrate 25 mM, aclarubicin 80 nM, sodium vanadate 50 μM

{"Molecule": "CC(=O)N[C@@H](CS)C(=O)O [N-Acetyl-L-cysteine]", "Tested On": "SMN2", "SMN2 splicing pattern MEF": "−"}
{"Molecule": "NC(=O)NO [Hydroxyurea]", "Tested On": "SMN2", "SMN2 splicing pattern MEF": "−"}
{"Molecule": "CC1=C(/C=C/C(C)=C/C=C/C(C)=C/C(=O)O)C(C)(C)CCC1 [All-trans retinoic acid]", "Tested On": "SMN2", "SMN2 splicing pattern MEF": "−"}
{"Molecule": "CCCC(=O)[O-].[Na+] [Sodium butyrate]", "Tested On": "SMN2", "SMN2 splicing pattern MEF": "+"}
{"Molecule": "CC(/C=C/C(=O)NO)=C\\[C@@H](C)C(=O)c1ccc(N(C)C)cc1 [Trichostatin A (TSA), Trichostatin A]", "Tested On": "SMN2", "SMN2 splicing pattern MEF": "+"}
{"Molecule": "CC[C@@]1(O)C[C@H](O[C@H]2C[C@H](N(C)C)[C@H](O[C@H]3C[C@H](O)[C@H](O[C@H]4CCC(=O)[C@H](C)O4)[C@H](C)O3)[C@H](C)O2)c2c(cc3c(c2O)C(=O)c2c(O)cccc2C3=O)[C@H]1C(=O)OC [Aclarubicin]", "Tested On": "SMN2", "SMN2 splicing pattern MEF": "+"}
{"Molecule": "CCCCCCCCCCCCCC(=O)O[C@@H]1[C@@H](C)[C@@]2(O)[C@@H](C=C(CO)C[C@]3(O)C(=O)C(C)=C[C@@H]23)[C@@H]2C(C)(C)[C@]12OC(C)=O [Phorbol-12-myristate-13-acetate]", "Tested On": "SMN2", "SMN2 splicing pattern MEF": "−"}
